test: Displacement of [3H]epibatidine from alpha3beta4* nAChR in calf adrenal P1 membrane after 90 mins by liquid scintillation counting; format: cell membranes, Bos taurus
Readout Type: Ki

Quick note, Ki for CNCCc1cn(CC=C(C)C)c2cc(Br)ccc12 landed at > 10 µM

Quick note, Ki for CCCCCCCCCCCCn1cc(CCN(C)C)c2ccccc21 landed at > 10 µM

Quick note, Ki for CN1CCC[C@H]1c1cccnc1 landed at 0.0753 µM

Quick note, Ki for CCCCCCCCn1c(C[N+](C)(C)C)cc2ccccc21 landed at > 10 µM

Quick note, Ki for CCCCCCCCCCCCn1cc(CN(C)C)c2ccccc21 landed at > 10 µM

Quick note, Ki for CCCCCCCCCCn1cc(CN(C)C)c2ccccc21 landed at > 10 µM

Quick note, Ki for CCCCCCCCn1cc(CCN(C)C)c2ccccc21 landed at > 10 µM

Quick note, Ki for C=CCn1cc(CCN(C)C)c2ccccc21 landed at 2.85 µM

====

# Ki per record follows
test: Displacement of [3H]MLA from alpha7* nAChR in Sprague-Dawley rat brain P2 membrane after 180 mins by liquid scintillation counting

Quick note, Ki for CCCCCCCCn1cc(CCC[N+](C)(C)C)c2ccccc21 landed at > 1 µM

Quick note, Ki for CCCCCCCCCCCCn1cc(CCCN(C)C)c2ccccc21 landed at > 10 µM

Quick note, Ki for CCCCCCCCn1cc(CCN(C)C)c2ccccc21 landed at > 10 µM

Quick note, Ki for CC(C)=CCn1cc(C[N+](C)(C)C)c2ccccc21 landed at > 10 µM

Quick note, Ki for CCCCCCCCCCCCn1cc(CCC[N+](C)(C)C)c2ccccc21 landed at > 10 µM

====

assay: Displacement of [3H]epibatidine from alpha4beta2* nAChR in Sprague-Dawley rat brain P2 membrane after 90 mins by liquid scintillation counting; assay type: tissue-based
pKi: −log10 of the molar value.
# pKi per record follows

>>> df
                       structure_as_smiles  readout_type  result
0  CC(C)=CCn1cc(C[N+](C)(C)C)c2ccc(Br)cc21           pKi    6.69

Quick note, pKi for CCCCCCCCCCn1cc(CCC[N+](C)(C)C)c2ccccc21 landed at < 5.00

Quick note, pKi for CNCCc1cn(C)c2ccccc12 landed at < 5.00

Quick note, pKi for CC(C)=CCn1cc(CC[N+](C)(C)C)c2ccc(Br)cc21 landed at 6.39

Quick note, pKi for CNCCc1cn(CC=C(C)C)c2cc(Br)ccc12 landed at < 5.00

Quick note, pKi for CNCCc1cn(CC=C(C)C)c2ccccc12 landed at < 5.00

====

assay: Displacement of [3H]epibatidine from (alpha1)2beta1gammadelta nAChR in electric ray electroplax P1 membrane after 90 mins by liquid scintillation counting; parameters: species or system Tetronarce californica
Readout Type: Ki

                        structure_as_smiles   result
0            CCCCCCCCn1cc(CCN(C)C)c2ccccc21  > 10 µM
1  CC(C)=CCn1cc(CC[N+](C)(C)C)c2ccc(Br)cc21  > 10 µM
2          C=CCn1cc(CC[N+](C)(C)C)c2ccccc21  > 10 µM
3             Cn1cc(CC[N+](C)(C)C)c2ccccc21  > 10 µM

Quick note, Ki for CC(C)=CCn1cc(CC[N+](C)(C)C)c2ccccc21 landed at 2.36 µM
